Biological target: T1, human Gal10-His (human, UniProt Q05315 2-142, limits assumed)
T1 construct: also called hGal10-His; human Gal10-His tagged; not shown: His tag
T1 sequence: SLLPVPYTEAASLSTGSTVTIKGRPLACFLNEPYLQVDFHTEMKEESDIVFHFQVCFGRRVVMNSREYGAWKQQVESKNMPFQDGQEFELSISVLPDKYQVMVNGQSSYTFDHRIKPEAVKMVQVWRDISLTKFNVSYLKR
Assay: SPR against T0 reference; sample 4 weeks at 37 C
// reported % relative activity by SPR for each item listed

| Binder | % relative activity by SPR / % |
| --- | --- |
| g7B07_N53A (human Fab) (Fab, V domains shown, VH assembled by inference as for g7B07; Human Fab backbone; also called g7B07_N53A (mean)) VH: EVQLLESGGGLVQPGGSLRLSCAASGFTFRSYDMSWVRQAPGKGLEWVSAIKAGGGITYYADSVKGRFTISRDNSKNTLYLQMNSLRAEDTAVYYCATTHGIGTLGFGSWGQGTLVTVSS VL: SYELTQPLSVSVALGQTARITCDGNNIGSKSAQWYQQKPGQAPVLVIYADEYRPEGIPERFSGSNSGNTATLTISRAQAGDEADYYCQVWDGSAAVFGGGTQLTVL | 95 |
| g20H09 (Fab) (Fab, V domains shown, same VH/VL) VH: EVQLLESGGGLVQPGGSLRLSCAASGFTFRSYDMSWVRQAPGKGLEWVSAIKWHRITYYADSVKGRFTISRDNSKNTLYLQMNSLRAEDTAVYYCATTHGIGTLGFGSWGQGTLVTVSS VL: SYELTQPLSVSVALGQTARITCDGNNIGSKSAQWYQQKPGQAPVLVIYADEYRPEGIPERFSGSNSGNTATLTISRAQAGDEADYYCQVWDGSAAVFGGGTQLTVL | 101 |
| g24F02_N53A (human Fab) (Fab, V domains shown, Human Fab backbone: human CH1 and human lambda constant domain (pUPEX vectors); also called g24F02_N53A_2W) VH: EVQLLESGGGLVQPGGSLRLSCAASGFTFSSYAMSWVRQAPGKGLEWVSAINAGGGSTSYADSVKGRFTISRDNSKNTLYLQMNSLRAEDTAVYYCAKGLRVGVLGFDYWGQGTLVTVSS VL: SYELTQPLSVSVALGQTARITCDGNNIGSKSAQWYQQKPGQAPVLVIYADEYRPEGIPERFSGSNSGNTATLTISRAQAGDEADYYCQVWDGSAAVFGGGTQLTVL | 103 |
| g23H09 (Fab) (Fab, V domains shown, same VH/VL) VH: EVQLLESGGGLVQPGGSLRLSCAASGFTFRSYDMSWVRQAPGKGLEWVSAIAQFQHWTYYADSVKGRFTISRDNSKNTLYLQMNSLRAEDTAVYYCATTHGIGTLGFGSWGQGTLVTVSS VL: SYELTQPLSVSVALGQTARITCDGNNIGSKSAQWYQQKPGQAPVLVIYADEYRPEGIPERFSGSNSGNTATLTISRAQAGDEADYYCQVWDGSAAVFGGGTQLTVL | 93 |
